Experimental protocol: biotin-GST/anti-GST TR-FRET signal inhibitors, dose response, artefact control for Vif-APOBEC3G degradation inhibitor project, biochemical (AID 1117362);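 also: biotinylated GST protein used in place of GST-Vif 1-94 and biotin-A3G peptide; detects fluorescence quenchers or blockers of GST binding to anti-GST antibody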
Condition description: TR-FRET counter screen; series mostly up to 100 µM
Out of some 3,600 compounds screened, about 100 (2.8%) were called active.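 The calls were made as follows: active = inhibition above 30% at one or more concentrations, seen consistently on every test date; inconclusive = results that disagree between repeat test dates; inactive = the rest.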 A selection follows.
In this exercise, the only acceptable responses are t (active), f (inactive)

{"columns": ["Compound", "Assigned class"],
 "data": [
  ["COCCCNC(=O)/C(C#N)=C/c1ccc(OCC(=O)O)c(OC)c1", "f"]
]}

*Q* Test call, this compound: `CCOc1ccc2[nH]c(=O)c(CN(Cc3ccco3)C(=O)c3ccc(Br)cc3)cc2c1`
*A* f

*Q* Another compound to look at: O=C(CSc1nnnn1-c1ccccc1)Nc1ncc2c(n1)CC(c1ccco1)CC2=O (stereo unspecified)
*A* f

*Q* Further, for C[c-]1[c-](C)[c-](C)[c-](C)[c-]1C.[Fe].c1cc2nccc(N3CCCC3)[c-]2c1 (stereo unspecified) ?
*A* t

*Q* Please do the same for `CC(=O)c1cccc(NC(=O)CN2C(=O)NC3(CCCCCCC3)C2=O)c1` as well.
*A* f

*Q* Thanks! And `CN(C)c1ccc(NC(=O)CSc2nc3ccccc3c(=O)n2C2CCCCC2)cc1` ?
*A* f

----------
Experimental protocol: biotin-GST/anti-GST TR-FRET signal inhibitors, dose response, artefact control for Vif-APOBEC3G degradation inhibitor project, biochemical (AID 1117362);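 also: biotinylated GST protein used in place of GST-Vif 1-94 and biotin-A3G peptide; detects fluorescence quenchers or blockers of GST binding to anti-GST antibody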
Condition description: TR-FRET counter screen; series mostly up to 100 µM
Screen size: about 3,600 compounds; about 100 (2.8%) were called active. These entries were drawn from the full list.
Quantity measured: IC50

{"columns": ["Compound", "IC50"],
 "data": [
  ["COC(=O)c1ccc(C)c(NC(=O)CCSc2ccccc2)c1", "inactive"],
  ["COc1ccccc1NC(=O)CSc1nnc(Cc2cc(=O)[nH]c(=O)[nH]2)n1-c1ccccc1", "inactive"],
  ["O/N=C1\\CCC\\C1=C/c1ccco1", "inactive"],
  ["CC(C)n1c(=NC(=O)c2ccco2)c(C#N)cc2c(=O)n3ccccc3cc21", "inactive"],
  ["c1ccc2c(c1)CCCN2Cc1nnc2n1CCCCC2", "inactive"]
]}

Report IC50 for each item below.
1. CCOc1ccc(Nc2nc3ccccc3n3nnnc23)cc1
2. CCOC(=O)C1=C(C)N=C2SC(C(=O)OC)=CC(=O)N2C1c1cc(OC)c(OC)c(OC)c1 (configuration not stated)
3. Cc1ccc(C)c(-n2c(Cc3cc(=O)[nH]c(=O)[nH]3)nnc2SC(C)C)c1
4. CCOC(=O)Cn1nnnc1C(C(C)C)N(Cc1cc2c(C)cc(C)cc2[nH]c1=O)C1CCCC1 (configuration not stated)

*A*
1. inactive
2. inactive
3. inactive
4. inactive

State recorded IC50 for all listed compounds.
1. O=C(c1cc(-c2ccco2)on1)N1CCN(c2ccccc2)CC1
2. Cc1cc(C)nc(N/N=C/C2=C(N3CCOCC3)C(=C\c3ccc(Cl)cc3)/CC2)n1
3. C=CC(=O)N1C/C(=C/c2ccc(F)cc2)C(=O)/C(=C\c2ccc(F)cc2)C1
4. COC(=O)C1=C(N)OC2=C(C(=O)CCC2)C1c1cccs1 (configuration not stated)
5. COCc1cc(C)nc(NCCO)c1C#N
6. CCOC(=O)N1CCN(C(=O)c2ccc3c(SCC(=O)O)c4c(nc3c2)CCC4)CC1
7. CCOC(=O)C1CCN(C(c2cccs2)c2sc3nc(C)nn3c2O)CC1 (configuration not stated)

*A*
inactive
inactive
inactive
inactive
inactive
inactive
inactive

Parameters: items (list). Returns: IC50 for each item.
1. O=C1CC(Nc2ccc(N3CCOCC3)cc2)C(=O)N1c1ccccc1F (configuration not stated)
2. COC(=O)C(C)Sc1nnc(Cc2cc(=O)[nH]c(=O)[nH]2)n1-c1cc(C)ccc1C (configuration not stated)
3. C=CCOC(=O)C1=C(C)NC(SCC(=O)Nc2ccccc2)=C(C#N)C1c1ccco1 (configuration not stated)
4. CCc1ccc2nc(N3CCN(C)CC3)c(C#N)cc2c1
5. Cc1cc(C)nc(N2CCC(C(=O)O)CC2)n1
6. CC(C)CC(=O)Nc1nnc(-c2ccco2)s1

*A*
1. inactive
2. inactive
3. inactive
4. inactive
5. inactive
6. inactive
